tested on: PfAP2-LT AP2 domain (GST-tagged); test: gcPBM binding intensity (ln(normalized median fluorescence intensity)); higher = stronger DNA binding
The full ranking holds about 25,000 sequences; the median of “ln(normalized median fluorescence intensity)” is about 8.9, and the highest 2% start at about 10. The sample holds the highest values, similar sequences and a random draw of the others, so the mix is not that of the screen.
In this section, each of the sequences is paired with its reported gcPBM binding intensity (ln).
Write the value as a bare number.

Below, 8 sequences whose answers are already recorded.
CACATACCCATACAAACACACATTATATATATATAT [CACACA_site4965] ... 9.56
CACCCATACACATACAAACACACATTCTATATATAT [CACACA_site1600] ... 9.28
CAATCAACAAAACATACACACACATATATATATATA [CACACA_site8979] ... 10
ATATAATGTGTAGGCCGTATTTACGTTTGGCAATCA [CACACA_negctrl_site1130] ... 8.99
CACGCGCACCAACACACACACACACCCATATATATA [CACACA_site2204] ... 10.3
CAAACAAATTGTGAAACACACATATATATATATATA [CACACA_site2001] ... 9.81
CATACATACAAACACACACACACACCCATATATATA [CACACA_site2918] ... 10.1
TATAAAAAATAAAATACACACACATATATATATATA [CACACA_site8365] ... 9.74

Now consider the entry below.
gcPBM binding intensity (ln) reading for GTTTAAAATCTTTGCACACATATAAATAAATATATT [CACACA_site2555] : 8.9

From: the supplement of paper PMC11417369
